# pEC50 per record follows
# Test system: MEF
# Assay name: Induction of apoptosis in Bax-deficient MEF assessed as appearance of fragmented nuclei and cell membrane blebbing after 24 hrs by DAPI staining
# Format: functional, cell-based
# Reported conditions: Mus musculus
pEC50: −log10 of the molar value.
Property: pEC50

> print(dat)
                            smiles.notation  property  assay.result
1  CCOc1ccccc1N/N=C1\C(=O)N(c2cc(O)cc(-c3ccc(N(C)C)cc3)c2)N=C1C     pEC50        < 4.30
2  CCOc1ccccc1N/N=C1/C(=O)N(c2nc(-c3ccccc3)cs2)N=C1C     pEC50        < 4.30
